Measured CHI by item
test: Lipophilicity, CHI in methanol by fast-gradient HPLC; type: physicochemical
readout: CHI (%)

smiles_structure=Nc1cc(F)ccc1Nc1ccc2c(c1)CCc1ncccc1C2=O numeric_value=72.9
smiles_structure=O=C1c2ccccc2CCc2cc(Nc3ccc(F)cc3F)ccc21 numeric_value=88.1
smiles_structure=O=c1c2ccccc2ccc2cc(Nc3ccc(F)cc3F)ccc12 numeric_value=88.7
